assay: NCI Yeast Anticancer Drug Screen. Data for the mec2-1 strain (AID 157); conditions: S. cerevisiae mec2-1 strain, at 50.0 µM, hits give high values
The panel holds about 79,000 compounds, 15% with a hit somewhere; the sample as a whole holds those more often.
Cut-off 50% on growth inhibition, inclusive. At or above means 1; below means 0.

[[record]]
compound = "C/C(=N/Nc1ccc([N+](=O)[O-])cc1[N+](=O)[O-])C1=CCC(C(C)(C)C)CC1 (stereo unspecified)"
label = 0

[[record]]
compound = "Cc1ccc(C)c(N2C(=O)C(=O)C(c3nc4ccccc4o3)/C(=N\\NC(=O)c3ccccc3O)C2=O)c1 (stereo unspecified)"
label = 1

[[record]]
compound = "Cc1ccc(S(=O)(=O)N(c2ccccc2-c2ccccc2)C(C)C(=O)O)cc1 (stereo unspecified)"
label = 1

[[record]]
compound = "CCCCCCCCCCCCOC(=O)C[n+]1cccc(C(=O)Nc2ccc(Cl)cc2)c1"
label = 1

[[record]]
compound = "COc1ccc(/C=c2\\sc3nnc(CCC(=O)Nc4cccc(C(F)(F)F)c4)n3c2=O)cc1"
label = 1


Quick check: does "N#Cc1snc2sc(=O)sc12" have growth inhibition greater than or equal to 50%?
1

And the next one, "CCCCn1cnc2c(SCc3ccc(F)cc3)nc(N)nc21" ?
0

// next record "CC(=O)Nc1ccc2c(c1)C(=O)c1cccc(F)c1-2"
0

Then this compound: "COC(=O)/C=C1/Nc2ccc(Cl)cc2C(=O)NC1=O"
0

Item: "Cc1cc2nc(CS)[nH]c2cc1C"
1
